Data origin, for the record: ChEMBL document CHEMBL1201862

I'd be grateful if you could share measured GI50 for these entries.
System: LOX IMVI
assay.summary: NCI tumour cell line growth inhibition, 48 h
Calls of active or inactive are those of the source. Rule as the data show it: active = GI50 up to about 1.1 µM and inactive = higher.

So for O=C1c2ccccc2C(=O)c2c(NCC(O)CO)ccc(NCC(O)CO)c21 (stereo unspecified) , the logged GI50 turned out to be 28.3 µM (inactive)

The recorded GI50 for O=S(=O)(O)c1ccc(Nc2ccnc3cc(Cl)ccc23)cc1 is > 100 µM (inactive)

Record CC(C)NCC(O)c1cc(OCc2ccccc2)c(OCc2ccccc2)cc1NC(=O)CCC(=O)O (stereo unspecified) . Reported GI50: 1.57 µM (inactive)

Item: COc1ccc(C2C3CCc4ccccc4C3=NN2S(=O)(=O)c2ccc(Cl)cc2)cc1 (stereo unspecified) | GI50: 22.8 µM (inactive)

Quick note, GI50 for CSc1n[n+]2c(s1)SCCC2 landed at > 100 µM (inactive)

The recorded GI50 for entry N#CC(NNC(=O)c1ccccc1O)c1ccc(O)cc1 (stereo unspecified) equals 5.83 µM (inactive)

For record COc1ccc(-c2onc(-c3c(C)cc(C)cc3C)c2C2=NCCN2)cc1 the listed GI50 is 30.1 µM (inactive)

Measured GI50 of O=C1N2CCc3c([nH]c4ccccc34)C23CC2CCCC12S3 (stereo unspecified) : 34.2 µM (inactive)

The recorded GI50 for entry Cc1ccc(C(=O)N/N=C(\N=N\c2cccc(C)c2)c2ccc(N(CCC#N)CCC#N)cc2C)cc1 equals 88.9 µM (inactive)

# GI50 (compound: O[C@]12c3ccccc3C1CCCC2N1CCOCC1 (stereo partly specified) ) is > 100 µM (inactive)

Sample C#C/C=C/CC1OC(C(Br)CC)CC(Br)C2CC1O2 (stereo unspecified) ; GI50 observed: 1.71 µM (inactive)

---

System: M14
assay.summary: NCI tumour cell line growth inhibition, 48 h
The source made the active and inactive calls. No stated cut-off is given here; in the data, active = GI50 up to about 1.1 µM and inactive = higher.
quantity.name: GI50

molecule S=P(N1CCCC1)(N1CC1)N1CC1 , GI50 observed: > 100 µM (inactive)

Summary for this molecule, CCOP1(=O)CC(C)=C(Cl)C(OC)C1 (stereo unspecified) : GI50 is > 100 µM (inactive)

GI50 measured on O[C@]12c3ccccc3C1CCCC2N1CCOCC1 (stereo partly specified) = > 100 µM (inactive)

GET /value?item= O=C(O)C12CC3CC(C1)C2C=C3P(=O)(O)O (stereo unspecified) &field=GI50 returns > 100 µM (inactive)

Measured GI50 of C/C=C(\C)[C@@H](O)C(=O)O[C@@H]1CC(C(C)(C)O)[C@](C)(CCC(=O)OC)[C@H]2[C@H](OC(=O)[C@H](O)[C@H](C)CC)C[C@]3(C)C(=CC[C@H]3[C@H]3CO[C@H](C=C(C)C)C3)[C@]12C (stereo partly specified) : 18.2 µM (inactive)

Recorded result, O=C(CC(=O)n1nc(-c2ccccc2)c(/N=N/c2ccccc2Cl)c1-c1ccccc1)Nc1ccc(Cl)cc1 , GI50: > 100 µM (inactive)

---

quantity.name: GI50 (µM)
The figure you give is taken to be in µM; do not add the unit.

Observed GI50 on HCT-15, entry CC1(C)O[C@H]2OC(CO[Si](C)(C)C(C)(C)C)C(N=[N+]=[N-])[C@H]2O1 (some centres undefined) , equals 21.1

Entry CC(=O)OC1CC2(O)C(CCC3(C)C(c4ccc(=O)oc4)CCC32O)C2(C)CCC(O)C=C12 (centres undefined) : GI50 on HCT-15 = 0.0239

Sample CN(C)CC1CC/C(=C\c2ccc(O)cc2)C1=O (centres undefined) , system: HCT-15. Its GI50 is 2.21

# GI50 measured on HCT-15 for item OCCN1CCN(c2nc(N3CCCC3)c3nc(Cl)c(NCc4ccccc4)nc3n2)CC1 = 2.84

HCT-15 data for O=C(c1ccc(Cl)cc1)N(C(=O)N1CCCCC1)c1ccccc1 ; its GI50: 79.4

The reported HCT-15 GI50 of COc1ccc(C2C3CCc4ccccc4C3=NN2S(=O)(=O)c2ccc(Cl)cc2)cc1 (centres undefined) is 1.8

Reading of GI50 for O=C(/C=C/c1ccccc1)C[C@@H](O)C[C@@H]1CC=CC(=O)O1 with HCT-15: 10.2

GET /values?item= O=[N+]([O-])c1ccc(S(=O)(=O)Cc2ccccc2)c2nonc12 &system= HCT-15 returns GI50: 22.3

Response field GI50 (HCT-15) for item CC1OC(OC2C(CO)OC(O[C@H]3CC[C@@]4(C)C(=CC[C@H]5[C@@H]6C[C@@H]7O[C@](O)(CC[C@@H](C)COC8OC(CO)C(O)C(O)C8O)[C@@H](C)[C@@H]7[C@@]6(C)CC[C@@H]54)C3)C(OC3OC(C)C(O)C(O)C3O)C2O)C(O)C(O)C1O (some centres undefined) : 1.89

Short answer on HCT-15 for CN(C)/C=N/S(=O)(=O)c1nn2c(C=O)c(-c3cc4ccccc4oc3=O)nc2s1 , GI50: 3.4

The reported HCT-15 GI50 of Cc1csc(-c2cn(C)c3c2C(=O)C(=N)C=C3O)n1 is 6.59

# lookup: CC(=O)Nc1ccc(/C=C/c2ccc(NC(=O)Nc3ccc(/C=C/c4ccc(NC(C)=O)cc4S(=O)(=O)O)c(S(=O)(=O)O)c3)cc2S(=O)(=O)O)c(S(=O)(=O)O)c1 on HCT-15, GI50 = 45.8

Hey, HCT-15 data for COCC(=O)[C@]1(O)Cc2c(O)c3c(c(O)c2[C@@H](OC2CC(N)C(O)C(C)O2)C1)C(=O)c1c(OC)cccc1C3=O (some centres undefined) : GI50 came out at 0.137

Field GI50 (HCT-15), entry CC(C)(C)c1cc(C(C)(C)C)c2sc(=S)oc2c1O : 4.98

Form field, GI50 with HCT-15, item O=C1/C(=C/c2ccc(F)cc2)CNC/C1=C\c1ccc(F)cc1 : 0.498

The observed GI50 for O=C(C[n+]1ccc2ccccc2c1)c1ccc2ccc3ccccc3c2c1 when tested with HCT-15 stands at 5.07

Item: O=C1C(=O)N(c2ccc(Cl)c(Cl)c2)C(=O)C(=O)C1c1nc2ccccc2o1 | System: HCT-15 | GI50: 50.2

// GI50 (HCT-15) for On1c(-c2ccccc2)nc2ccccc2c1=S = 1.36

Entry O=C(c1ccc([N+](=O)[O-])cc1[N+](=O)[O-])N(/N=C/C=C/c1ccccc1)c1nnc(-c2ccccc2)c(-c2ccccc2)n1 : GI50 on HCT-15 = 29
